# phosphorylation enrichment listing for each entry below
- Test System: FGFR3 (UniProt P22607)
- Sequence (P22607 whole entry, looked up): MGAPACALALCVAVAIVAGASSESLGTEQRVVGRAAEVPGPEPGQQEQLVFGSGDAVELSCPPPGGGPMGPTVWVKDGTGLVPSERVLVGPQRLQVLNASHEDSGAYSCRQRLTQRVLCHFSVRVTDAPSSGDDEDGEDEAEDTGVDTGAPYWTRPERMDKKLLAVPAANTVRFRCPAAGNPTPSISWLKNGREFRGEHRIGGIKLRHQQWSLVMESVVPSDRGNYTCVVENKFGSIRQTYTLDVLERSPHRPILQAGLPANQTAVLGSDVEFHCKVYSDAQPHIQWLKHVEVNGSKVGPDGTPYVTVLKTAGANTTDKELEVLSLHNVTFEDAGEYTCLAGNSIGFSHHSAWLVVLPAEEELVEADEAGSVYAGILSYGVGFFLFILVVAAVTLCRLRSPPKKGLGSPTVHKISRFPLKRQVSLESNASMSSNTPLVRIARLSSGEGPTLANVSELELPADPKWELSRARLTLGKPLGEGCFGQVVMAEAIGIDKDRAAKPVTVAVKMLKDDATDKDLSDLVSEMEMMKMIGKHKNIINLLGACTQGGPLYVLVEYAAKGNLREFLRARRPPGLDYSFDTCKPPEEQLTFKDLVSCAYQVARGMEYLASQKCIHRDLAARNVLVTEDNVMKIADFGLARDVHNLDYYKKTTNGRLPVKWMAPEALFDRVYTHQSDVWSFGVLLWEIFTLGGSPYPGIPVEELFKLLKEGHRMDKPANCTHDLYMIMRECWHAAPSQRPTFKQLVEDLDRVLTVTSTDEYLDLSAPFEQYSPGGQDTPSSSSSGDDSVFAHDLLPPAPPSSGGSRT
- Protocol Text: phosphorylation enrichment, bacterial display (enrichment ratio); higher = better substrate or ligand; peptides without Tyr show the background;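 further: 11-residue human phosphosite peptides and single-mutation variants displayed on the E. coli surface, counted by deep sequencing, each peptide's frequency after selection divided by its frequency in the unselected input library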;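 further: frequency after pTyr selection over input frequency; kinase dosed for 20-30% of maximal phosphorylation in three min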

Entry Sequence: SVVVHYEPPEV [TP53_Y220_P219H]
phosphorylation enrichment: 0.647
--
Entry Sequence: LWKWKYEELKE [CCDC102B_Y299]
phosphorylation enrichment: 1.24
--
Entry Sequence: ADNQRYAFMPL [TMEM87B_Y460_N456D]
phosphorylation enrichment: 0.641
--
Entry Sequence: TRSFDYMEGED [FGF7_Y58_G62E_YF]
phosphorylation enrichment: 0.788
--
Entry Sequence: PLQKTYNYNVL [SLC4A1_Y553]
phosphorylation enrichment: 0.691
--
Entry Sequence: LEIETYRRLLD [KRT12_Y429]
phosphorylation enrichment: 0.627
--
Entry Sequence: KTSGNYLPVTG [WDR19_Y28_A30P]
phosphorylation enrichment: 0.37
--
Entry Sequence: LRNIDYFRLDG [ATRX_Y2083_YF]
phosphorylation enrichment: 10.8
--
Entry Sequence: THPFLYLTLEI [MLH1_Y293_S295T]
phosphorylation enrichment: 1.23
--
Entry Sequence: KIIATYRLCSE [DNAH3_Y1586_V1583I]
phosphorylation enrichment: 0.678
--
Entry Sequence: QSAGQYSSQGL [TNNI3K_Y788]
phosphorylation enrichment: 0.542
--
Entry Sequence: NMHSTYAKLAA [SEC22B_Y193]
phosphorylation enrichment: 0.349
--
Entry Sequence: YEREQYADRTR [RBM4_Y355_A359T]
phosphorylation enrichment: 0.472
--
Entry Sequence: PTTKTYFRHFD [HBA1_Y43_P45R]
phosphorylation enrichment: 0.66
--
Entry Sequence: AVNDFYAAKKT [CCDC178_Y422]
phosphorylation enrichment: 0.551
--
Entry Sequence: TRDVNYGWVIR [MT-CYB_Y75_I78V]
phosphorylation enrichment: 0.869
--
Entry Sequence: IRSGIYYKPES [L2HGDH_Y102_H98R]
phosphorylation enrichment: 0.735
--
Entry Sequence: FLAATYPTVGQ [NF1_Y2508_YF]
phosphorylation enrichment: 0.523
--
Entry Sequence: NHQYDYTFHWT [CSNK1A1_Y294_D297H]
phosphorylation enrichment: 3.88
--
Entry Sequence: NPSYNYEIVNQ [DYNC1H1_Y3379_R3384Q]
phosphorylation enrichment: 0.701
--
Entry Sequence: QRDSSYYWEIE [RAF1_Y340]
phosphorylation enrichment: 3.03
--
Entry Sequence: QPGTDYKIFLF [FN1_Y1970_YF]
phosphorylation enrichment: 1.21
--
Entry Sequence: VPLATYMQIFK [RPL21_Y30_R32Q_YF]
phosphorylation enrichment: 0.54
--
Entry Sequence: SQSAKYDMAED [TTC21B_Y1213_I1208S]
phosphorylation enrichment: 0.56
--
Entry Sequence: KEDSAYGSQSV [NFKB2_Y868]
phosphorylation enrichment: 0.584
--
Entry Sequence: LLVVLCKYRCY [PSEN1_Y154_Y154C]
phosphorylation enrichment: 0.536
--
Entry Sequence: QFQLKYSETPF [SIX6OS1_Y129_YF]
phosphorylation enrichment: 1.11
--
Entry Sequence: SLNAVYPKAGS [OAS3_Y376_R378K]
phosphorylation enrichment: 0.443
--
Entry Sequence: KLKRSYSSPDI [USP8_Y717]
phosphorylation enrichment: 0.461
--
Entry Sequence: RPSELYFSKIG [SMG1_Y2253_YF]
phosphorylation enrichment: 0.654
--
Entry Sequence: RRNTYYASIAK [ACADM_Y353]
phosphorylation enrichment: 0.76
--
Entry Sequence: VTVLDYDKIGK [SYT1_Y365]
phosphorylation enrichment: 0.515
--
Entry Sequence: DDEENYENVPR [FCRL3_Y722]
phosphorylation enrichment: 0.773
--
Entry Sequence: KPNMNYDKLSR [FLI1_Y332]
phosphorylation enrichment: 0.4
--
Entry Sequence: KPVDTYYDSTR [DYNC2H1_Y2230_M2227V]
phosphorylation enrichment: 0.668
--
Entry Sequence: ELTSVYGSRAR [SENP1_Y349_D350G]
phosphorylation enrichment: 0.583
--
Entry Sequence: ESMLRYDVFGG [STOX1_Y607_E608D_YF]
phosphorylation enrichment: 0.685
--
Entry Sequence: REGDKYVSHGA [ASS1_Y113_A111D]
phosphorylation enrichment: 0.58
--
Entry Sequence: IFGVSYGEYRY [CFTR_Y512_D513G]
phosphorylation enrichment: 0.819
--
Entry Sequence: DFLSSYSAVNQ [OAT_Y85]
phosphorylation enrichment: 0.698
--
Entry Sequence: KPIETYFSKNF [PLP1_Y50_L46P_YF]
phosphorylation enrichment: 0.555
--
Entry Sequence: RRSKMYLKTRS [LPL_Y329_S325R]
phosphorylation enrichment: 0.571
--
Entry Sequence: THPFLYLSLEI [MLH1_Y293]
phosphorylation enrichment: 0.827
--
Entry Sequence: ASTDYYKRGDF [PDHA1_Y243]
phosphorylation enrichment: 0.501
--
Entry Sequence: FHKALYTVRTY [PDE6C_Y266_S270T]
phosphorylation enrichment: 0.774
--
Entry Sequence: APSGNYVACGG [GNB1_Y111]
phosphorylation enrichment: 1.07

----------
- Test System: EPHB1 (UniProt P54762)
- Sequence (P54762 whole entry, looked up): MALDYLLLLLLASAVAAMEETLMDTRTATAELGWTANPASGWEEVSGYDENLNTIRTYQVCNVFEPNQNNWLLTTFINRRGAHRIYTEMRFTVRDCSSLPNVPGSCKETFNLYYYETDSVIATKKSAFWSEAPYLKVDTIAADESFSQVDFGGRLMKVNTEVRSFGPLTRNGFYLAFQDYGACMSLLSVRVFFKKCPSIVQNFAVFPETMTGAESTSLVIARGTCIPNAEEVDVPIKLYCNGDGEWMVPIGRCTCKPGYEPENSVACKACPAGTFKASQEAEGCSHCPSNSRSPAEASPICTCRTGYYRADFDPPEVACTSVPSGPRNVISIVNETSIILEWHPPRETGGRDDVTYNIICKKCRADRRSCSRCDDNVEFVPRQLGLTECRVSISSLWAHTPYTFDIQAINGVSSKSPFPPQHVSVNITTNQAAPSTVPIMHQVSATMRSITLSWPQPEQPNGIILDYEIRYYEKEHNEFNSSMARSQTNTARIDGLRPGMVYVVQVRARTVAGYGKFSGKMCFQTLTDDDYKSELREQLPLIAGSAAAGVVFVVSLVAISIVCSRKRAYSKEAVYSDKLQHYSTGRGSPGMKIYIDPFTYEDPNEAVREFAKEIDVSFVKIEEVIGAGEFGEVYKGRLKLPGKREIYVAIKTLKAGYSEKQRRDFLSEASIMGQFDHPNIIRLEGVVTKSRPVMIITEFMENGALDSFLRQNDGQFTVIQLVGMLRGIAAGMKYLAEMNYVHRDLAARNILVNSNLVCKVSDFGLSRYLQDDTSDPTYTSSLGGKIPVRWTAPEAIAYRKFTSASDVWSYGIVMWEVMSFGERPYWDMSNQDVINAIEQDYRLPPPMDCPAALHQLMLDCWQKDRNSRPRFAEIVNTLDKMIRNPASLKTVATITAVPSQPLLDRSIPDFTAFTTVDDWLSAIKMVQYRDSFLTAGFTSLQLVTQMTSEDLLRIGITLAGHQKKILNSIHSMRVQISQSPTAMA
- Protocol Text: phosphorylation enrichment, bacterial display (enrichment ratio); higher = better substrate or ligand; peptides without Tyr show the background

Entry Sequence: FKDGQYWIRGW [ACSF3_Y466_R471W]
phosphorylation enrichment: 0.624

Entry Sequence: QAYSWYQHQRA [NDST1_Y714_R709Q]
phosphorylation enrichment: 0.701

Entry Sequence: LVMFIYDIFGM [SCN1A_Y1684_A1685D]
phosphorylation enrichment: 2.11

Entry Sequence: PTTKTYFPHFH [HBA1_Y43_D48H]
phosphorylation enrichment: 0.457

Entry Sequence: TFVKSYTIHFS [F5_Y2153_M2148T_YF]
phosphorylation enrichment: 0.599

Entry Sequence: GADDSYYTVRS [ZAP70_Y492_A495V]
phosphorylation enrichment: 0.68

Entry Sequence: TGILLYGLASR [QARS1_Y57]
phosphorylation enrichment: 0.964

Entry Sequence: QQLVAYFSKHT [SRC_Y232_A237T_YF]
phosphorylation enrichment: 0.676

Entry Sequence: QLDQHYLLVPE [DDX49_Y223_R222H]
phosphorylation enrichment: 1.21

----------
- Test System: Hck (UniProt P08631)
- Sequence (P08631 whole entry, looked up): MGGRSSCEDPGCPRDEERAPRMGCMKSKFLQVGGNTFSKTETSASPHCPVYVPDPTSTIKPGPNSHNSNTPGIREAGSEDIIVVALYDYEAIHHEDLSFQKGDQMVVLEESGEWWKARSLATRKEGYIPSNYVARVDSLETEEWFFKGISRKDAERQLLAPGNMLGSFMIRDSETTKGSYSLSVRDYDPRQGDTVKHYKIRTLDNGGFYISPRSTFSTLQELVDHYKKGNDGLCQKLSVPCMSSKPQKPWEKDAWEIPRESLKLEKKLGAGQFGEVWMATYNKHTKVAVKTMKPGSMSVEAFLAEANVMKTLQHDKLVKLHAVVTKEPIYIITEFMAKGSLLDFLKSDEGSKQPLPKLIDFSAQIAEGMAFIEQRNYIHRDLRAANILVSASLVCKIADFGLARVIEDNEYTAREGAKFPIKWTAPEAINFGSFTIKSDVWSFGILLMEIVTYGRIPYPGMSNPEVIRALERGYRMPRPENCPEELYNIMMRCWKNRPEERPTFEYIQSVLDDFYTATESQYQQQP
- Protocol Text: phosphorylation enrichment, bacterial display (enrichment ratio); higher = better substrate or ligand; peptides without Tyr show the background
Measure Name: phosphorylation enrichment

Entry Sequence: DDEENYENVPR [FCRL3_Y722]
Measure Name: phosphorylation enrichment
Val: 0.589
//
Entry Sequence: VRRVGYVSGWG [HP_Y280_G276R]
Measure Name: phosphorylation enrichment
Val: 0.438
//
Entry Sequence: TQRPYYKGGGG [TYROBP_Y112]
Measure Name: phosphorylation enrichment
Val: 0.377
//
Entry Sequence: RGFDTYFGFLL [ARSB_Y165_YF]
Measure Name: phosphorylation enrichment
Val: 6.53
//
Entry Sequence: GHLYAYNWISI [BEST1_Y227_D228N]
Measure Name: phosphorylation enrichment
Val: 1.24
//
Entry Sequence: REIIAYQPFGK [PRKCG_Y529_P524R_YF]
Measure Name: phosphorylation enrichment
Val: 0.438
//
Entry Sequence: VPEANYTSDEE [STK33_Y439_D436E]
Measure Name: phosphorylation enrichment
Val: 0.576
//
Entry Sequence: ETKKQYDSFTY [TMED3_Y85]
Measure Name: phosphorylation enrichment
Val: 0.54
//
Entry Sequence: RSSKTYLKTRS [LPL_Y329_M328T]
Measure Name: phosphorylation enrichment
Val: 0.706
//
Entry Sequence: GSRGKYSSGFH [ATM_Y332_R337H]
Measure Name: phosphorylation enrichment
Val: 0.391
//
Entry Sequence: LEIETYRRLLD [KRT12_Y429]
Measure Name: phosphorylation enrichment
Val: 0.497
//
Entry Sequence: LKGIRYLTSGL [PIGA_Y82_R77L]
Measure Name: phosphorylation enrichment
Val: 0.937
//
Entry Sequence: LTGIAYGLPHW [SLC22A14_Y291_S292G]
Measure Name: phosphorylation enrichment
Val: 0.631
//
Entry Sequence: PTEAQYRFIYM [PTPN11_Y511_Q506P]
Measure Name: phosphorylation enrichment
Val: 1.35
//
Entry Sequence: PVKDGYQMAQP [CSF1R_Y873_L868P]
Measure Name: phosphorylation enrichment
Val: 0.833
//
Entry Sequence: HIILLYIFLKN [STXBP1_Y411_R406H]
Measure Name: phosphorylation enrichment
Val: 0.501

----------
phosphorylation enrichment values by entry
- Test System: EPHB1 (UniProt P54762)
- Protocol Text: phosphorylation enrichment, bacterial display (enrichment ratio); higher = better substrate or ligand; peptides without Tyr show the background

Entry Sequence: LDPMVYMNDKS [PTK2B_Y834]
phosphorylation enrichment: 0.727

Entry Sequence: GCKKRYDKDKP [THAP1_Y14_N12K]
phosphorylation enrichment: 0.449

Entry Sequence: THPFLYLSLEI [MLH1_Y293]
phosphorylation enrichment: 0.628

Entry Sequence: LREIRYQGGNR [VWF_Y1570_V1565L]
phosphorylation enrichment: 0.385

Entry Sequence: TRDVNYGWVIR [MT-CYB_Y75_I78V]
phosphorylation enrichment: 0.947

Entry Sequence: LHVKMYNFLRS [ADGRG7_Y760_R756H]
phosphorylation enrichment: 0.831

Entry Sequence: GPIFRYDSGGA [CYP11B1_Y81_L83S]
phosphorylation enrichment: 0.487

Entry Sequence: VERRVYAEDPY [PCCA_Y401_C398R]
phosphorylation enrichment: 0.459

Entry Sequence: TIQIMFGCDVG [HLA-A_Y123_Y123F]
phosphorylation enrichment: 0.905

Entry Sequence: ADLAKYICENQ [ALB_Y287]
phosphorylation enrichment: 0.672

Entry Sequence: GSIQQYTYKQE [PRG4_Y1271_I1272T]
phosphorylation enrichment: 0.45

Entry Sequence: QMVDMYASSYM [AVPR2_Y124_G122D]
phosphorylation enrichment: 0.558

Entry Sequence: KEELAYLKKNH [KRT14_Y248]
phosphorylation enrichment: 0.413
